# method: NCI Yeast Anticancer Drug Screen. Data for the wt2 strain (AID 169)
# assay conditions: S. cerevisiae wt2 strain growth inhibition; at 100.0 µM
This is part of a sample that, as a whole, favours compounds with a hit. Of some 79,000 tested, about 15% had one in any assay. Active and inactive are the calls of the source. Cut-off read from the data, not from the text of the source: active = growth inhibition above about 70%; inactive = the rest.
Outcomes: true for active, false for inactive

{"compound": "CCCCCCSc1nc(COC(=O)NC)c(COC(=O)NC)n1C", "category": "true"}
{"compound": "CCOC(=O)C(NC(=O)CC)(N1CCN(c2cc3c(cc2F)c(=O)c(C(=O)O)cn3C2CC2)CC1)C(F)(F)F (configuration not stated)", "category": "true"}
{"compound": "O=c1ccc(N=Nc2ccccc2)ccc1O", "category": "true"}
{"compound": "O=C1C=CC(=O)N1c1ccc(I)cc1", "category": "true"}
{"compound": "CC(=O)O[C@H]1C(=O)[C@@]2(C)[C@H]([C@H](OC(=O)c3ccccc3)[C@]3(O)C[C@H](OC(=O)[C@H](O)[C@@H](NC(=O)c4ccccc4)c4ccccc4)C(C)=C1C3(C)C)[C@]1(OC(C)=O)CO[C@@H]1C[C@@H]2O", "category": "false"}
{"compound": "CCCCOC(=O)CSSCC(=O)OCCCC", "category": "true"}
{"compound": "CCN(CC)N=Nc1c(C(N)=O)n[nH]c1C", "category": "false"}

Data credit: PubChem BioAssay (NCI)
